Tested on: rodent lifetime carcinogenesis bioassay, tumor incidence TD50
Test: carcinogenic potency in animals, long-term in vivo studies, CPDB compilation (AID 1745844)
Settings: rat; strain F344/DuCrj; females; in drinking water; site: esophagus; lesion: papilloma; dosed 50 weeks; study length 50 weeks
RESULT_TYPE: TD50 (mg/kg/day)

>>> test_value("CCCCN(N=O)C(N)=O")
6.58

====

Tested on: rodent lifetime carcinogenesis bioassay, tumor incidence TD50
Test: carcinogenic potency in animals, long-term in vivo studies, CPDB compilation (AID 1745844)
Details: mouse; strain Swiss albino; females; by gavage; site: clitoral gland; lesion: squamous-cell carcinoma; dosed 52 weeks; study length 109 weeks
RESULT_TYPE: TD50 (mg/kg/day)

>>> test_value("CC=NN(C)C=O")
46.4

====

Tested on: rodent lifetime carcinogenesis bioassay, tumor incidence TD50
Assay: carcinogenic potency in animals, long-term in vivo studies, CPDB compilation (AID 1745844)
Details: mouse; strain Charles River CD1; females; in feed; site: lung; lesion: alveolar/bronchiolar carcinoma; dosed 86 weeks; study length 86 weeks
Activity calls are given as the source filed them. The rule behind the calls is not given here.
RESULT_TYPE: TD50

>>> test_value("Cc1ccc2c(-c3cccc(O)c3)nc(=O)n(C(C)C)c2c1")
"4600 mg/kg/day (inactive)"

====

Test system: rodent lifetime carcinogenesis bioassay, tumor incidence TD50
Experiment: carcinogenic potency in animals, long-term in vivo studies, CPDB compilation (AID 1745844)
Conditions: mouse; strain C57BL/6N; males; in feed; site: liver; lesion: hepatocellular adenoma; dosed 89 weeks; study length 91 weeks
RESULT_TYPE: TD50

>>> test_value("CC(C)(Oc1ccc(C2CC2(Cl)Cl)cc1)C(=O)O (stereo unspecified)")
"19.2 mg/kg/day"

====

Test system: rodent lifetime carcinogenesis bioassay, tumor incidence TD50
Assay: carcinogenic potency in animals, long-term in vivo studies, CPDB compilation (AID 1745844)
Conditions: mouse; strain Swiss; males; i.p.; site: any site (literature study); lesion: several types; types named in the paper; dosed 26 weeks; study length 72 weeks
RESULT_TYPE: TD50 (mg/kg/day)

>>> test_value("CN(N=O)C(=O)N[C@@H](C=O)[C@@H](O)[C@H](O)[C@H](O)CO")
0.217

====

Tested on: rodent lifetime carcinogenesis bioassay, tumor incidence TD50
Experiment: carcinogenic potency in animals, long-term in vivo studies, CPDB compilation (AID 1745844)
Settings: mouse; strain C57BL/6; females; by gavage; site: any site (literature study); lesion: one or several types; types not named; dosed 104 weeks; study length 114 weeks
Active and inactive are the calls of the source. The rule behind the calls is not given here.
RESULT_TYPE: TD50

>>> test_value("CC(C)C(C(=O)OC(C#N)c1cccc(Oc2ccccc2)c1)c1ccc(Cl)cc1 (stereo unspecified)")
"435 mg/kg/day (inactive)"

====

Tested on: rodent lifetime carcinogenesis bioassay, tumor incidence TD50
Experiment: carcinogenic potency in animals, long-term in vivo studies, CPDB compilation (AID 1745844)
Settings: hamster; strain Syrian Golden; females; in drinking water; site: cecum; lesion: several types; types named in the paper; dosed 67 weeks; study length 67 weeks
RESULT_TYPE: TD50

>>> test_value("CNNC")
"0.864 mg/kg/day"

====

System: rodent lifetime carcinogenesis bioassay, tumor incidence TD50
Test: carcinogenic potency in animals, long-term in vivo studies, CPDB compilation (AID 1745844)
Settings: rat; strain Fischer 344; females; in feed; site: cecum + colon + rectum; lesion: polypoid adenoma; dosed 103 weeks; study length 104 weeks
RESULT_TYPE: TD50

>>> test_value("Nc1c(Br)cc(Br)c2c1C(=O)c1ccccc1C2=O")
"72.9 mg/kg/day"

====

Test system: rodent lifetime carcinogenesis bioassay, tumor incidence TD50
Assay: carcinogenic potency in animals, long-term in vivo studies, CPDB compilation (AID 1745844)
Details: rat; strain MRC; males; by gavage; site: any site (literature study); lesion: one or several types; types not named; dosed 72 weeks; study length 80 weeks
RESULT_TYPE: TD50 (mg/kg/day)

>>> test_value("CC(=O)CN(CC(C)=O)N=O")
0.0995

====

Test system: rodent lifetime carcinogenesis bioassay, tumor incidence TD50
Test: carcinogenic potency in animals, long-term in vivo studies, CPDB compilation (AID 1745844)
Details: mouse; strain Swiss; females; by gavage; site: lung; lesion: adenocarcinoma; dosed 52 weeks; study length 122 weeks
RESULT_TYPE: TD50 (mg/kg/day)

>>> test_value("CCCCC/C=N/N(C)C=O")
8.73

====

Test system: rodent lifetime carcinogenesis bioassay, tumor incidence TD50
Assay: carcinogenic potency in animals, long-term in vivo studies, CPDB compilation (AID 1745844)
Settings: mouse; strain Charles River CD1; males; in drinking water; site: all sites; lesion: all vascular tumors; dosed 104 weeks; study length 104 weeks
RESULT_TYPE: TD50

>>> test_value("CN(C)N")
"6.13 mg/kg/day"

====

System: rodent lifetime carcinogenesis bioassay, tumor incidence TD50
Test: carcinogenic potency in animals, long-term in vivo studies, CPDB compilation (AID 1745844)
Conditions: mouse; strain B6C3F1; females; in feed; site: all sites; lesion: hemangioma + hemangiosarcoma; dosed 78 weeks; study length 95 weeks
RESULT_TYPE: TD50

>>> test_value("[O-]/[N+](=N\\O)c1ccccc1")
"419 mg/kg/day"

====

Tested on: rodent lifetime carcinogenesis bioassay, tumor incidence TD50
Experiment: carcinogenic potency in animals, long-term in vivo studies, CPDB compilation (AID 1745844)
Conditions: rat; strain Fischer 344; males; in drinking water; site: liver; lesion: neoplastic nodule; dosed 88 weeks; study length 92 weeks
RESULT_TYPE: TD50 (mg/kg/day)

>>> test_value("COc1cc(-c2ccc(N)c(OC)c2)ccc1N")
12.4

====

System: rodent lifetime carcinogenesis bioassay, tumor incidence TD50
Experiment: carcinogenic potency in animals, long-term in vivo studies, CPDB compilation (AID 1745844)
Details: mouse; strain B6C3F1; females; in feed; site: lung; lesion: alveolar/bronchiolar adenoma + alveolar/bronchiolar carcinoma; dosed 78 weeks; study length 97 weeks
RESULT_TYPE: TD50 (mg/kg/day)

>>> test_value("CCOc1ccc(NC(C)=O)cc1[N+](=O)[O-]")
30800

====

Tested on: rodent lifetime carcinogenesis bioassay, tumor incidence TD50
Test: carcinogenic potency in animals, long-term in vivo studies, CPDB compilation (AID 1745844)
Settings: rat; strain Sprague-Dawley; males; in feed; site: liver; lesion: several types; types named in the paper; dosed 60 weeks; study length 60 weeks
RESULT_TYPE: TD50

>>> test_value("CC(C)(Oc1ccc(C2CCCc3ccccc32)cc1)C(=O)O (stereo unspecified)")
"3.51 mg/kg/day"

====

Tested on: rodent lifetime carcinogenesis bioassay, tumor incidence TD50
Assay: carcinogenic potency in animals, long-term in vivo studies, CPDB compilation (AID 1745844)
Conditions: hamster; strain Syrian Golden; males; by gavage; site: spleen; lesion: hemangiosarcoma; dosed 30 weeks; study length 85 weeks
RESULT_TYPE: TD50

>>> test_value("CCN(N=O)C(=O)NCC(C)=O")
"0.865 mg/kg/day"

====

System: rodent lifetime carcinogenesis bioassay, tumor incidence TD50
Assay: carcinogenic potency in animals, long-term in vivo studies, CPDB compilation (AID 1745844)
Conditions: mouse; strain CD-1 HaM/ICR; males; in feed; site: all sites; lesion: all vascular tumors; dosed 68 weeks; study length 94 weeks
RESULT_TYPE: TD50

>>> test_value("Cc1ccc(C)c(N)c1")
"723 mg/kg/day"

====

Test system: rodent lifetime carcinogenesis bioassay, tumor incidence TD50
Experiment: carcinogenic potency in animals, long-term in vivo studies, CPDB compilation (AID 1745844)
Conditions: rat; strain Charles River CD (Sprague-Dawley); females; inhaled; site: liver; lesion: hemangiosarcoma; dosed 26 weeks; study length 78 weeks
RESULT_TYPE: TD50 (mg/kg/day)

>>> test_value("C=CCl")
115

====

System: rodent lifetime carcinogenesis bioassay, tumor incidence TD50
Experiment: carcinogenic potency in animals, long-term in vivo studies, CPDB compilation (AID 1745844)
Conditions: rat; strain Fischer 344; males; inhaled; site: testis; lesion: interstitial-cell tumor; dosed 103 weeks; study length 104 weeks
RESULT_TYPE: TD50 (mg/kg/day)

>>> test_value("ClC(Cl)=C(Cl)Cl")
68.6

====

Test system: rodent lifetime carcinogenesis bioassay, tumor incidence TD50
Experiment: carcinogenic potency in animals, long-term in vivo studies, CPDB compilation (AID 1745844)
Settings: mouse; strain B6C3F1; females; by gavage; site: forestomach; lesion: squamous-cell papilloma; dosed 103 weeks; study length 105 weeks
RESULT_TYPE: TD50

>>> test_value("C=C(C)CCl")
"87.7 mg/kg/day"
>>> test_value("CC(I)C1OCC(CO)O1 (configuration not stated)")
"608 mg/kg/day"

====

System: rodent lifetime carcinogenesis bioassay, tumor incidence TD50
Assay: carcinogenic potency in animals, long-term in vivo studies, CPDB compilation (AID 1745844)
Conditions: rat; strain F344/DuCrj; males; in feed; site: urinary bladder; lesion: leiomyosarcoma; dosed 104 weeks; study length 104 weeks
RESULT_TYPE: TD50 (mg/kg/day)

>>> test_value("O=c1cc[nH]c(=O)[nH]1")
24300
